Data origin: ChEMBL document CHEMBL3091303

# Target of assay: Adenosine receptor A1 (Rattus norvegicus, UniProt P25099)
# Method description: Displacement of [3H]CCPA from adenosine A1 receptor in rat brain cortex
# Type: tissue-based
pKi: −log10 of the molar value.
What pKi was measured for each of the following?

Provide pKi values for the following items, in order.
1. CCCn1c(=O)c2c(nc3n2CCCN3CC(=O)N2CCN(Cc3ccccc3)CC2)n(CCC)c1=O
2. COc1ccc(CN2CCN(C(=O)CN3CCCn4c3nc3c4c(=O)n(C)c(=O)n3C)CC2)cc1
3. Cn1c(=O)c2c(nc3n2CCCN3CC(=O)N2CCN(Cc3ccccc3)CC2)n(C)c1=O
4. C#CCn1c(=O)c2c(nc3n2CCCN3CCc2cccs2)n(C)c1=O

Resp:
["< 5.82", "< 5.82", "< 5.82", 6.00]

I would be grateful if you could provide pKi for each of the following entries.
1. C#CCn1c(=O)c2c(nc3n2CCCN3CC2CCCO2)n(C)c1=O (stereo unspecified)
2. Cn1c(=O)c2c(nc3n2CCCN3CC(=O)N2CCN(Cc3ccc(C(F)(F)F)cc3)CC2)n(C)c1=O

Resp:
1. 6.77
2. < 5.82

----------
Could you please report measured Ki for the items listed next?
# Target of assay: Adenosine receptor A1 (Rattus norvegicus, UniProt P25099)
# Sequence (P25099 whole entry): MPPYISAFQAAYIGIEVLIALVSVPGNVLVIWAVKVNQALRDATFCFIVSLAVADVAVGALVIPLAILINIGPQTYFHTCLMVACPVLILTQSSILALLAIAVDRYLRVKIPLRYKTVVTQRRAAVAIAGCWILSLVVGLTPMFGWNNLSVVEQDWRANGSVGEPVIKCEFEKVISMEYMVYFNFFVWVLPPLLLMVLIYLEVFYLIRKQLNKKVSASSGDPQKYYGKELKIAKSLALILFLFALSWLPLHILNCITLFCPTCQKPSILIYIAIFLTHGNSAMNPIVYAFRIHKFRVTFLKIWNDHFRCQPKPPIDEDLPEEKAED
# Method description: Displacement of [3H]CCPA from adenosine A1 receptor in rat brain cortex
# Assay type: tissue-based

Below, 3 compounds whose answers are already recorded.
Smi | Observed
Cn1c(=O)c2c(nc3n2CCCN3c2ccc(Cl)c(Cl)c2)n(C)c1=O | > 10 µM
CCCn1c(=O)c2c(nc3n2CCCN3CC(=O)N2CCN(Cc3ccc(C(F)(F)F)cc3)CC2)n(CCC)c1=O | > 1.5 µM
CCn1c(=O)c2c(nc3n2CCCN3CCc2ccc(OC)c(OC)c2)n(CC)c1=O | > 10 µM

Req: // query Ki value for entry CCn1c(=O)c2c(nc3n2CCCN3CCc2ccc(OC)cc2)n(CC)c1=O
Resp: > 10 µM

----------
# Target of assay: Adenosine receptor A2b (Homo sapiens) (UniProt P29275)
# Sequence (P29275 whole entry): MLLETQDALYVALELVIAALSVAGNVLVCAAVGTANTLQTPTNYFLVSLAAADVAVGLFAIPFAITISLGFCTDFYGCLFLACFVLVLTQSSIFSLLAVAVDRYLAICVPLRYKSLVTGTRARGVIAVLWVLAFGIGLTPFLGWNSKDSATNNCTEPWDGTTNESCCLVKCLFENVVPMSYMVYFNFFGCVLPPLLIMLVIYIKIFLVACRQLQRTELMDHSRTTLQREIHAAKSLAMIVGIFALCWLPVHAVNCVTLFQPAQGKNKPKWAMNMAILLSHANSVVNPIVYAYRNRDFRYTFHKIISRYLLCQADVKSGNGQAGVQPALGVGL
# Method description: Displacement of [3H]PSB-603 from human adenosine A2B receptor relative to control
# Parameters: concentration or dose not given beside the values
# Cond: concentration not given here
Measured endpoint: inhibition (%)
Give bare numbers, in %.

Smi | Target of assay | Observed
CCCn1c(=O)c2c(nc3n2CCCN3CC(=O)N2CCN(Cc3ccccc3)CC2)n(CCC)c1=O | Adenosine receptor A2b (Homo sapiens) (UniProt P29275) | 0

// each compound listed below needs its inhibition
1. Cn1c(=O)c2c(nc3n2CCCN3Cc2ccc(Cl)cc2)n(C)c1=O
2. CCCn1c(=O)c2c(nc3n2CCCN3CCC(=O)N2CCN(c3ccccc3)CC2)n(CCC)c1=O
3. C#CCn1c(=O)c2c(nc3n2CCCN3CCc2cccs2)n(C)c1=O
4. C#CCn1c(=O)c2c(nc3n2CCCN3CCc2ccccc2)n(C)c1=O
5. CCn1c(=O)c2c(nc3n2CCCN3CCN2CCCCC2)n(CC)c1=O

Resp:
[1, -5, 16, 3, 2]

Need inhibition for each of these compounds.
1. C#CCn1c(=O)c2c(nc3n2CCCN3CCc2ccc(OC)cc2)n(C)c1=O
2. C#CCn1c(=O)c2c(nc3n2CCCN3Cc2ccccc2OC)n(C)c1=O
3. C#CCn1c(=O)c2c(nc3n2CCCN3CC2CCCCC2)n(C)c1=O
4. C#CCn1c(=O)c2c(nc3n2CCCN3Cc2cccnc2)n(C)c1=O
5. Cn1c(=O)c2c(nc3n2CCCN3Cc2ccc(Cl)c(Cl)c2)n(C)c1=O

Resp:
1. 8
2. 16
3. -5
4. 1
5. 5

Provide each entry's inhibition from the list below.
1. CCCn1c(=O)c2c(nc3n2CCCN3CC(=O)N2CCN(c3ccc(Cl)cc3)CC2)n(CCC)c1=O
2. CCn1c(=O)c2c(nc3n2CCCN3CCc2ccccc2OC)n(CC)c1=O
3. C#CCn1c(=O)c2c(nc3n2CCCN3c2cccc(OC)c2)n(C)c1=O
4. CCCn1c(=O)c2c(nc3n2CCCN3CC(=O)N2CCN(Cc3ccc(C(F)(F)F)cc3)CC2)n(CCC)c1=O
5. C#CCn1c(=O)c2c(nc3n2CCCN3c2ccc(C(C)C)cc2)n(C)c1=O

Resp:
1: 7; 2: 20; 3: 8; 4: 15; 5: 17

----------
# Target of assay: MAO-A (amine oxidase [flavin-containing] A) (Homo sapiens, UniProt P21397)
# Sequence (P21397 whole entry): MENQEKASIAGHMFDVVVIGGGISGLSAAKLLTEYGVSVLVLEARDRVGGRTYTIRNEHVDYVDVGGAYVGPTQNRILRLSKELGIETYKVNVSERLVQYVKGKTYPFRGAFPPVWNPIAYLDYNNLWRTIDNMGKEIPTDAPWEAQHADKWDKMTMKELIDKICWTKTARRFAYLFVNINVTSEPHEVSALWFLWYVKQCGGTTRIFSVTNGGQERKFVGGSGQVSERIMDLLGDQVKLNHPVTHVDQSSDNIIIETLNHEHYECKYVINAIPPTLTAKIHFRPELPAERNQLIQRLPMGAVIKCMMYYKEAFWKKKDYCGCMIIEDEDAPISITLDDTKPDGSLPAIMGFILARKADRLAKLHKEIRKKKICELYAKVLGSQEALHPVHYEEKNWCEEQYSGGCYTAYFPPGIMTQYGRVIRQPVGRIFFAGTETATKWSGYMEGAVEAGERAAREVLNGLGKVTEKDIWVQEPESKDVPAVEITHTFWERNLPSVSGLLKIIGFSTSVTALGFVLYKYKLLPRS
# Method description: Inhibition of human MAO-A at 10 uM relative to control
Measured endpoint: inhibition at 10 µM (%)
Answers are plain numbers, in %.

Give inhibition at 10 µM for each listed item.
1. C#CCn1c(=O)c2c(nc3n2CCCN3Cc2ccccc2OC)n(C)c1=O
2. Cn1c(=O)c2c(nc3n2CCCN3CCc2cccc(Cl)c2)n(C)c1=O
3. Cn1c(=O)c2c(nc3n2CCCN3c2cccc(Cl)c2)n(C)c1=O
4. CCn1c(=O)c2c(nc3n2CCCN3CCc2ccc(OC)cc2)n(CC)c1=O
5. CCCn1c(=O)c2c(nc3n2CCCN3CCC(=O)N2CCN(Cc3ccc(Cl)cc3)CC2)n(CCC)c1=O
6. C#CCn1c(=O)c2c(nc3n2CCCN3Cc2cccc(OC)c2)n(C)c1=O
7. C#CCn1c(=O)c2c(nc3n2CCCN3c2ccc(C(C)C)cc2)n(C)c1=O

Resp:
1: 4; 2: -4; 3: 15; 4: 2; 5: 1; 6: 5; 7: 5

// batch mode: one inhibition at 10 µM value per listed entry
1. Cn1c(=O)c2c(nc3n2CCCN3Cc2cccc(Cl)c2)n(C)c1=O
2. CCCn1c(=O)c2c(nc3n2CCCN3CC(=O)N2CCN(Cc3ccc(C(F)(F)F)cc3)CC2)n(CCC)c1=O
3. CCn1c(=O)c2c(nc3n2CCCN3CCc2ccc(OC)c(OC)c2)n(CC)c1=O

Resp:
1. 2
2. 5
3. 4

----------
Exercise: state measured Ki for each of the compounds provided.
# Target of assay: Adenosine receptor A1 (Rattus norvegicus)
# Method description: Displacement of [3H]CCPA from adenosine A1 receptor in rat brain cortex
# Type: tissue-based

Smi | Ki
C#CCn1c(=O)c2c(nc3n2CCCN3CCc2cc(OC)c(OC)c(OC)c2)n(C)c1=O | > 10 µM
Cn1c(=O)c2c(nc3n2CCCN3c2cc(Cl)cc(Cl)c2)n(C)c1=O | > 10 µM
CCn1c(=O)c2c(nc3n2CCCN3CCc2cc(OC)c(OC)c(OC)c2)n(CC)c1=O | > 10 µM
CCCn1c(=O)c2c(nc3n2CCCN3CCC(=O)N2CCN(c3ccccc3)CC2)n(CCC)c1=O | > 1.5 µM
Cn1c(=O)c2c(nc3n2CCCN3CC(=O)N2CCN(Cc3ccc(Cl)cc3)CC2)n(C)c1=O | > 1.5 µM
Cn1c(=O)c2c(nc3n2CCCN3Cc2ccc(Cl)cc2)n(C)c1=O | > 25 µM

Moving on to the next compound.
Req: For Adenosine receptor A1 (Rattus norvegicus), provide Ki of CCCn1c(=O)c2c(nc3n2CCCN3CC(=O)N2CCN(c3ccccc3)CC2)n(CCC)c1=O please.
Resp: > 1.5 µM

----------
# Target of assay: Adenosine receptor A2b (Homo sapiens)
# Sequence (P29275 whole entry): as the sequence (P29275 whole entry) above
# Method description: Displacement of [3H]PSB-603 from human adenosine A2B receptor
pKi: −log10 of the molar value.
Measured endpoint: pKi

Known results for compounds:
Smi | Target of assay | pKi
CCCn1c(=O)c2c(nc3n2CCCN3CCC(=O)N2CCN(Cc3ccc(Cl)cc3)CC2)n(CCC)c1=O | Adenosine receptor A2b (Homo sapiens) | < 6.00
C#CCn1c(=O)c2c(nc3n2CCCN3CCc2ccc(OC)cc2)n(C)c1=O | Adenosine receptor A2b (Homo sapiens) | < 6.00

Consider the additional compound presented here.
Req: Fill in: pKi of COc1ccc(CN2CCN(C(=O)CN3CCCn4c3nc3c4c(=O)n(C)c(=O)n3C)CC2)cc1 is ___
Resp: < 6.00

----------
# Target of assay: Adenosine receptor A1 (Rattus norvegicus)
# Method description: Displacement of [3H]CCPA from adenosine A1 receptor in rat brain cortex
# Format: tissue-based
Give measured Ki for each item. Keep answers brief.

Smi | Target of assay | Ki
CCCn1c(=O)c2c(nc3n2CCCN3CCC(=O)N2CCN(Cc3ccc(Cl)cc3)CC2)n(CCC)c1=O | Adenosine receptor A1 (Rattus norvegicus) | > 1.5 µM

# map each compound to its Ki
1. Cn1c(=O)c2c(nc3n2CCCN3CC(=O)N2CCN(c3ccccc3)CC2)n(C)c1=O
2. C#CCn1c(=O)c2c(nc3n2CCCN3C2CCN(Cc3ccccc3)CC2)n(C)c1=O
3. CCn1c(=O)c2c(nc3n2CCCN3CCc2cccc(OC)c2)n(CC)c1=O
4. CCn1c(=O)c2c(nc3n2CCCN3c2ccc(O)cc2)n(CC)c1=O

Resp:
["> 1.5 µM", "> 10 µM", "> 10 µM", "> 10 µM"]
